Recorded GI50, one value per entry.
# Test system: CAKI-1 renal
# Measurement Notes: NCI tumour cell line growth inhibition, 48 h

Field: example entries. Status: answers known.
stdin: I'd like to know its GI50. The molecule in question is COC(=O)C[C@@H]1CC=CC(=O)/C1=C(O)/C=C/c1ccccc1
stdout: 408 nM

stdin: I'd like to know its GI50. The molecule in question is CC1(C)CC(C(=O)OCCCCCCCCCCC[P+](c2ccccc2)(c2ccccc2)c2ccccc2)C(C)(C)N1O (stereo not drawn)
stdout: 781 nM

stdin: I'd like to know its GI50. The molecule in question is NC1=C(/C(N)=N/O)C(c2ccccc2)c2ccc3ccccc3c2O1 (stereo not drawn)
stdout: 192 nM

stdin: I'd like to know its GI50. The molecule in question is Cc1ccc(Nn2c(SCC(=O)Nc3nc(-c4ccccc4)cs3)nc(C)c2C)cc1
stdout: 1860 nM

stdin: I'd like to know its GI50. The molecule in question is C=CC(=O)OCCCS(=O)(=O)[O-].C=CC(=O)OCCCS(=O)(=O)[O-].NC1CCCCC1N.[Pt+4]
stdout: > 25000 nM

Continuing:
stdin: I'd like to know its GI50. The molecule in question is COC(=O)C(Br)(C(=O)OC)C(Br)C(Br)C(Br)c1ccccc1 (stereo not drawn)
stdout: 1760 nM

stdin: I'd like to know its GI50. The molecule in question is COc1ccc2cn3c4ccc(O)cc4[nH]c(=O)c3c2c1
stdout: 179 nM

stdin: I'd like to know its GI50. The molecule in question is COc1ccc2c(ccc3oc([N+](=O)[O-])cc32)c1
stdout: 128 nM

* * *

# Tested on: HCT-15 colon
# Measurement Notes: NCI tumour cell line growth inhibition, 48 h; in the data active = GI50 below about 0.43 µM; inactive = the rest
Pick one: active, inactive

Known results for compounds:
stdin: Fill in: this test's call for COc1ccc(/C=C\c2cc(OC)c(OC)c(OC)c2)cc1N/C=C\C(=O)c1c[nH]c2ccccc12 is ___
stdout: active

stdin: Fill in: this test's call for O=C1Nc2cc(-c3ccc(O)cc3)ccc2/C1=C/c1ccc[nH]1 is ___
stdout: active

stdin: Fill in: this test's call for O=C(C[n+]1ccn(CC(OCc2ccc(Cl)cc2Cl)c2ccc(Cl)cc2Cl)c1)c1ccc(F)cc1 (stereo not given) is ___
stdout: inactive

stdin: Fill in: this test's call for CCN1C(=O)N[C@H]2[C@@H]3NC(=O)c4ccc(Cl)n4[C@@H]3C[C@]21O is ___
stdout: inactive

// next entry
stdin: Fill in: this test's call for Cc1cc(O)cc(-c2nn(C)cc2-c2cc(N3CCOCC3)nc(-c3cccnc3)n2)c1 is ___
stdout: inactive

* * *

# System: DMS 114 small cell lung
# Measurement Notes: NCI tumour cell line growth inhibition, 48 h
Recorded TGI, one value per entry.

stdin: I'd like to know its TGI. The compound in question is COc1ccc([C@H]2[C@@H]3CCc4ccccc4C3=NN2C(N)=S)cc1OC
stdout: 93.7 µM

stdin: I'd like to know its TGI. The compound in question is O=c1c2cc(Br)ccc2n(C2OC(CO)C(O)C(O)C2O)c(=S)n1-c1ccccc1 (stereo unspecified)
stdout: > 100 µM

stdin: I'd like to know its TGI. The compound in question is C=C(CN(C)C)C(=O)c1ccccc1Cl
stdout: 29.4 µM

Continuing:
stdin: I'd like to know its TGI. The compound in question is CC(=O)OCc1ncccc1C(OC(C)=O)OC(C)=O
stdout: > 100 µM

stdin: I'd like to know its TGI. The compound in question is CC(C)=CC1(C)/C(=N\O)C(C)(CC(C)C)C(=O)N1O (stereo unspecified)
stdout: > 100 µM

stdin: I'd like to know its TGI. The compound in question is CC1=C(c2ccccc2)CON(c2ccccc2)C1
stdout: > 100 µM
